Origin of measurements: the supplement of paper PMC11208160

Recorded recombinant UMI read abundance (log10) values for a group of sequences are listed next.
assay: recombinant UMI read abundance after kanamycin selection (control-corrected) (log10(CPM+1)); higher = more efficient recombination; extreme values may be limits of the assay; sequences stand for … in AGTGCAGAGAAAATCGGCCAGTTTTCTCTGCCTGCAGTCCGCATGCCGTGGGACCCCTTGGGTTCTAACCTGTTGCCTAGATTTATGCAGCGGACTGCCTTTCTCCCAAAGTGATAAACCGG…AGGTTGGTTTCACT; site = the 11-nt donor;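 note: IS621 bridge recombinase in Escherichia coli cells against a fixed T5 target plasmid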
Reply with the value as a number alone.

{"Ordered residues": "GAAGATGCATGGACCGGTTTTCCCGGTAATCCGTATTTGTT (site GAAGATACTAA)", "Readout value": 1.88}
{"Ordered residues": "TGAGGACCATGGACCGGTTTTCCCGGTAATCCGTATTTGGT (site TGAGGACCTAC)", "Readout value": 0.00901}
{"Ordered residues": "ATTAGGCCATGGACCGGTTTTCCCGGTAATCCGTATTTGAC (site ATAAGGCCTGT)", "Readout value": 0}
{"Ordered residues": "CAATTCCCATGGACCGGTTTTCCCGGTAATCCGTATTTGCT (site CAATTCCCTAT)", "Readout value": 1.61}
{"Ordered residues": "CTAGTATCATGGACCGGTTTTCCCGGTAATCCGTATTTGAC (site CCACTATCTGT)", "Readout value": 0}
{"Ordered residues": "AAGCATACATGGACCGGTTTTCCCGGTAATCCGTATTTGAC (site AAGCATACTGT)", "Readout value": 2.88}
{"Ordered residues": "GTTCTAGCATGGACCGGTTTTCCCGGTAATCCGTATTTGCA (site GTTCGAGCTTG)", "Readout value": 0}
{"Ordered residues": "AGCCTGTCATGGACCGGTTTTCCCGGTAATCCGTATTTGAC (site AGCCTATCTGT)", "Readout value": 0}

From here, focus on the item given below.
May I ask what recombinant UMI read abundance (log10) has been recorded for GCGCTGGCATGGACCGGTTTTCCCGGTAATCCGTATTTGCG (site GCGCTGGCTCG) ?
0.891
